Attribution: patent US20230192839A1

Tested on: human CD33
assay-summary: Biacore SPR binding kinetics of anti-CD33 scFv-Fc clones with or without 10 µM MTX
conditions: CD33; 0 µM MTX; 37° C., pH 7.4; scFv-Fc
reported-endpoint: koff, kinetics toward antigen with 0 µM MTX (s⁻¹)
Your answer should be a plain number; it is taken to be in s⁻¹.

// sample P04_C09: anti-CD33 clone with conditional affinity; VH SEQ ID NO: 23, VL SEQ ID NO: 24 (antibody, V domains shown, Synthetic Antibody) VH: QVQLVESGGGLVQAGGSLRLSCAASRRSSRSWAMHWVRQAPGKGLEWVAVISYDGRLKYYADSVKGRFTISRDNAEYLVYLQMNSLRAEDTAVYYCAAEANESDSGGIDVWGQGTLVTVSS VL: DIQMTQSPSSLSASVGDRVTITCRASQTIGGYLNWYQQKPGKAPKLLIYAASSLQSGVPSRFSGSGSGTDFTLTISSLQPEDFATYYCQQGYSSGAFGQGTKVEIK , its koff, kinetics toward antigen with 0 µM MTX was 0.0018

Lookup result for P02_H01: anti-CD33 clone with conditional affinity; VH SEQ ID NO: 17, VL SEQ ID NO: 18 (antibody, V domains shown, Synthetic Antibody) VH: QVQLVESGGGLVQAGGSLRLSCAASRRSSRSWAMHWVRQAPGKGLEWVAVISYDGRLKYYADSVKGRFTISRDNAEYLVYLQMNSLRAEDTAVYYCAAGSGGGDGLDVWGQGTLVTVSS VL: DIQMTQSPSSLSASVGDRVTITCRASQTISSYLNWYQQKPGKAPKLLIYSSSTLQGGVPSRFSGSGSGTDFTLTISSLQPEDFATYYCQQSYSSGTFGQGTKVEIK ; measured koff, kinetics toward antigen with 0 µM MTX: 0.037

Per the records, this molecule ( P01_A09: anti-CD33 clone with conditional affinity; VH SEQ ID NO: 3, VL SEQ ID NO: 4; tested as scFv-Fc (antibody, V domains shown) VH: QVQLVESGGGLVQAGGSLRLSCAASRRSSRSWAMHWVRQAPGKGLEWVAVISYDGRLKYYADSVKGRFTISRDNAEYLVYLQMNSLRAEDTAVYYCAAERPTSDGSTGGMDVWGQGTLVTVSS VL: DIQMTQSPSSLSASVGDRVTITCRASQSISSYLNWYQQKPGKAPKLLIYGASTLQSGVPSRFSGSGSGTDFTLTISSLQPEDFATYYCQQSYSSGTFGQGTKVEIK ) has koff, kinetics toward antigen with 0 µM MTX equal to 0.017

Continuing:
Consider P08_C08: anti-CD33 clone with conditional affinity; VH SEQ ID NO: 27, VL SEQ ID NO: 28 (antibody, V domains shown, Synthetic Antibody) VH: QVQLVESGGGLVQAGGSLRLSCAASRRSSRSWAMHWVRQAPGKGLEWVAVISYDGRLKYYADSVKGRFTISRDNAEYLVYLQMNSLRAEDTAVYYCAAEGSGSTDGSGAIDVWGQGTLVTVSS VL: DIQMTQSPSSLSASVGDRVTITCRASQSIGSYLNWYQQKPGKAPKLLIYAASSLQSGVPSRFSGSGSGTDFTLTISSLQPEDFATYYCQQSYSSGSFGQGTKVEIK . Its measured koff, kinetics toward antigen with 0 µM MTX is 0.0045

// koff, kinetics toward antigen with 0 µM MTX value for P04_C05: anti-CD33 clone with conditional affinity; VH SEQ ID NO: 41, VL SEQ ID NO: 42 (antibody, V domains shown, Synthetic Antibody) VH: QVQLVESGGGLVQAGGSLRLSCAASRRSSRSWAMHWVRQAPGKGLEWVAVISYDGRLKYYADSVKGRFTISRDNAEYLVYLQMNSLRAEDTAVYYCAAGLPWTDYWGQGTLVTVSS VL: QSVLTQPPSASGTPGQRVTISCSGSNSNIGSNYVSWYQQLPGTAPKLLIYSNNQRPSGVPDRFSGSKSGTSASLAISGLRSEDEADYYCAAWDDRLSVVFGTGTKLTVL : 0.0021

get_value(item= P02_E08: anti-CD33 clone with conditional affinity; VH SEQ ID NO: 37, VL SEQ ID NO: 38; also as scFv in CAR (antibody, V domains shown, Synthetic Antibody, also as scFv in CAR) VH: QVQLVESGGGLVQAGGSLRLSCAASRRSSRSWAMHWVRQAPGKGLEWVAVISYDGRLKYYADSVKGRFTISRDNAEYLVYLQMNSLRAEDTAVYYCAASDYDGGGLFDLWGQGTLVTVSS VL: QSVLTQPPSASGTPGQRVTISCSGSNSNIGDNYVHWYQQLPGTAPKLLIYMNNQRPSGVPDRFSGSKSGTSASLAISGLRSEDEADYYCATWDDSLSGVVFGTGTKLTVL , readout=koff, kinetics toward antigen with 0 µM MTX) returns 0.01

Briefly, koff, kinetics toward antigen with 0 µM MTX measured for P02_D08: anti-CD33 clone with conditional affinity; VH SEQ ID NO: 13, VL SEQ ID NO: 14 (antibody, V domains shown, Synthtic Antibody; Synthetic Antibody) VH: QVQLVESGGGLVQAGGSLRLSCAASRRSSRSWAMHWVRQAPGKGLEWVAVISYDGRLKYYADSVKGRFTISRDNAEYLVYLQMNSLRAEDTAVYYCAAERGDGLDGNVGLDIWGQGTLVTVSS VL: DIQMTQSPSSLSASVGDRVTITCRASQSISKYLNWYQQKPGKAPKLLIYGASTLQSGVPSRFSGSGSGTDFTLTISSLQPEDFATYYCQQSYSSGTFGQGTKVEIK : 0.0061

# molecule P02_D09: anti-CD33 clone with conditional affinity; VH SEQ ID NO: 35, VL SEQ ID NO: 36; also as scFv in CAR (antibody, V domains shown, Synthetic Antibody, also as scFv in CAR) VH: QVQLVESGGGLVQAGGSLRLSCAASRRSSRSWAMHWVRQAPGKGLEWVAVISYDGRLKYYADSVKGRFTISRDNAEYLVYLQMNSLRAEDTAVYYCAAEEGDGGFFDYWGQGTLVTVSS VL: QSVLTQPPSASGTPGQRVTISCSGSSSNIGSNYVNWYQQLPGTAPKLLIYRNNERPSGVPDRFSGSKSGTSASLAISGLRSEDEADYYCAAWDGSLSGRGVFGTGTKLTVL ; its koff, kinetics toward antigen with 0 µM MTX = 0.018
